These data points were gathered from patent US9221783B2.

For each entry below, report its Grip strength, percentage compared to the vehicle only (100%) value.
# Tested on: male mice (ICR)
# assay method text: Muscle relaxation activity by grip strength test (forelimbs)
# Assay type: in vivo
# condition context: intraperitoneal, dose 200 (unit not given)

Guide cases for Grip strength, percentage compared to the vehicle only (100%), answers given:
INSERT INTO measurements (input_smiles, result) VALUES
  ('CCC1(CC)O[C@H](COS(N)(=O)=O)[C@@H](Cc2ccccc2Cl)O1', '200 (70.2%)'),
  ('NS(=O)(=O)OCC[C@H]1OC2(CCCC2)O[C@@H]1Cc1ccccc1', '200 (83.7%)'),
  ('NS(=O)(=O)OC[C@@H]1OC2(CCCC2)O[C@H]1c1ccccc1', '200 (62.9%)');

For every item below, please supply its Grip strength, percentage compared to the vehicle only (100%).
1. NS(=O)(=O)OCC[C@@H]1OC2(CCCC2)O[C@H]1c1ccccc1
2. CC1(C)O[C@@H](COS(N)(=O)=O)[C@H](c2ccc(Cl)cc2Cl)O1
3. CCC1(CC)O[C@@H](COS(N)(=O)=O)[C@H](c2ccccc2N)O1

1. 200 (90.1%)
2. 200 (79.3%)
3. 200 (78.6%)

====

For each record, write down the corresponding Grip strength, percentage compared to the vehicle only (100%).
# Tested on: male mice (ICR)
# assay method text: Muscle relaxation activity by grip strength test (forelimbs)
# Type: in vivo
# condition context: intraperitoneal, dose 200 (unit not given)
# Protocol: For testing, male mice (ICR) were purchased from ORIENT BIO INC. (Korea), divided into several groups with 6 mice in each group, and were adapted for 4-5 days. The mice having the weight ranging from 19 g to 26 g were employed for the test. The pharmacological effect of the test compounds on muscle relaxation was evaluated by Rotarod test, grip strength test, and muscular force (wire hang) test. All mice were adapted to the test environment at one hour before starting the tests. […]

Field: Grip strength, percentage compared to the vehicle only (100%). Fill in for each record below.
1. NS(=O)(=O)OC[C@H]1OC2(CCCC2)O[C@@H]1Cc1ccccc1Cl
2. CCC1(CC)O[C@@H](CCOS(N)(=O)=O)[C@H](c2ccccc2)O1
3. CC1(C)O[C@H](COS(N)(=O)=O)[C@@H](Cc2ccccc2Cl)O1
4. NS(=O)(=O)OC[C@@H]1OC(=O)O[C@H]1c1ccccc1[N+](=O)[O-]
5. NS(=O)(=O)OC[C@@H]1OC2(CCCCC2)O[C@H]1c1ccccc1
6. Nc1ccccc1[C@@H]1OC2(CCCC2)O[C@H]1COS(N)(=O)=O
7. NS(=O)(=O)OCC[C@@H]1OC2(CCCC2)O[C@H]1c1ccccc1Cl
8. NS(=O)(=O)OC[C@@H]1OC2(CCCCC2)O[C@H]1c1ccccc1Cl

1. 200 (89.8%)
2. 200 (25.7%)
3. 200 (79.2%)
4. 200 (43.8%)
5. 200 (33.2%)
6. 200 (87.0%)
7. 200 (74.2%)
8. 200 (57.7%)

Lookup result for NS(=O)(=O)OC[C@H]1OC2(CCCCC2)O[C@@H]1Cc1ccccc1Cl ; measured Grip strength, percentage compared to the vehicle only (100%): 200 (77.2%)

====

# Tested on: male mice (ICR)
# assay method text: Muscle relaxation activity by grip strength test (forelimbs)
# Type: in vivo
# condition context: intraperitoneal, dose 200 (unit not given)
value kind: Grip strength, percentage compared to the vehicle only (100%)

Take a look at these entries with their results.
INSERT INTO results (molecule, result) VALUES
  ('CCC1(CC)O[C@H](COS(N)(=O)=O)[C@@H](Cc2ccccc2)O1 [Example 124]', '200 (81.0%)'),
  ('CCC1(CC)O[C@H](CCOS(N)(=O)=O)[C@@H](Cc2ccccc2)O1 [Example 116]', '200 (81.6%)'),
  ('CCC1(CC)O[C@H](CCOS(N)(=O)=O)[C@@H](Cc2ccccc2Cl)O1 [Example 140]', '200 (73.4%)'),
  ('CCC1(CC)O[C@@H](CCOS(N)(=O)=O)[C@H](c2ccccc2Cl)O1 [Example 156]', '200 (73.2%)'),
  ('CC1(C)O[C@@H](COS(N)(=O)=O)[C@H](c2ccccc2)O1 [Example 106]', '200 (62.8%)');

Respectfully, I request Grip strength, percentage compared to the vehicle only (100%) for each entry included below.
1. NS(=O)(=O)OCC[C@H]1OC2(CCCCC2)O[C@@H]1Cc1ccccc1Cl [Example 144]
2. CNc1ccccc1[C@@H]1OC(C)(C)O[C@H]1COS(=O)(=O)NC [Example 104]

1: 200 (62.0%); 2: 200 (71.3%)

Below are 2 molecules. Give each one its Grip strength, percentage compared to the vehicle only (100%).
1. NS(=O)(=O)OC[C@H]1OC2(CCCCC2)O[C@@H]1Cc1ccccc1 [Example 128]
2. CC1(C)O[C@@H](CCOS(N)(=O)=O)[C@H](c2ccccc2Cl)O1 [Example 154]

1: 200 (81.4%); 2: 200 (70.4%)
